Data origin, for the record: patent US20160264649A1

The entries below come with measured IC50 (neutralization) values attached.
target: HIV-1 Env of isolate MGRM-F1-022 (subtype F) (HIV-1); assay: cell-based or functional assay
Return type: number; implicit unit µg/mL.

# binder, IC50 (neutralization) / µg/mL
data = [
    ("PGT-128 (antibody, V domains shown) VH: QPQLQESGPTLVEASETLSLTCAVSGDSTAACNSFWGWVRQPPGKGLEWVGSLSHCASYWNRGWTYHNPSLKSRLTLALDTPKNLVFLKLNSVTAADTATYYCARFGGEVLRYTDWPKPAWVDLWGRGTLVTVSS VL: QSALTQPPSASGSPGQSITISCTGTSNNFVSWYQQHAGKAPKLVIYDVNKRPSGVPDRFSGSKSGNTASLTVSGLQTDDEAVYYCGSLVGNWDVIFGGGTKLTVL", 4.54),
    ("PGT-136 (antibody, V domains shown) VH: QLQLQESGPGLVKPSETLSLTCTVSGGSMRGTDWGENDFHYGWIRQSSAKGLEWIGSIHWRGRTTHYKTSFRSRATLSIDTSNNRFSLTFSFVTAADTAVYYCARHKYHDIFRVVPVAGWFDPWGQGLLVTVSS VL: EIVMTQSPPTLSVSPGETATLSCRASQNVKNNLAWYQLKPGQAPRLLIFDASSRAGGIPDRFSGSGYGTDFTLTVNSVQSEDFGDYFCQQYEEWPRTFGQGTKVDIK", 2.42),
]

Tell me the measured IC50 (neutralization) of PGT-137 (antibody, V domains shown) VH: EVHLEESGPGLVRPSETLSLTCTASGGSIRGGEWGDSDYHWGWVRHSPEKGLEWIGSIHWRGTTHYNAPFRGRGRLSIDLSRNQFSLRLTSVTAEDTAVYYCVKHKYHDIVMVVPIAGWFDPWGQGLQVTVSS VL: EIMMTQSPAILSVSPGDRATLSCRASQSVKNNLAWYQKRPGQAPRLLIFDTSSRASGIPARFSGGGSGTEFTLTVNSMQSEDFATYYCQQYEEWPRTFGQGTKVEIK , please.
6.23

Similarly, PGT-135 (antibody, V domains shown) VH: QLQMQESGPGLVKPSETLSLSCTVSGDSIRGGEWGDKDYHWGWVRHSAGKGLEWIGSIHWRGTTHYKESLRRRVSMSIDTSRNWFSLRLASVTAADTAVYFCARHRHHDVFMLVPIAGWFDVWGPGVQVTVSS VL: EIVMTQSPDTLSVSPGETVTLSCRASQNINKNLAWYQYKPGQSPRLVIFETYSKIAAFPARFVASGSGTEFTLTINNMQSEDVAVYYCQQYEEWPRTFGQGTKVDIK ?
0.964
